Below is a list of entries, each paired with its recorded solubility value.
test_protocol: Aqueous Solubility in pION's buffer
Type: physicochemical
condition: pH 6.2, aqueous buffer, read-out: Aqueous Solubility in pION's buffer pH 6.2
Write the answer as a number in µg/mL, unit excluded.

Solved cases (3 shown):
O=C(/C=C/c1cncc(F)c1)c1c(-c2ccccc2)c2cc(Cl)ccc2[nH]c1=O : 6.6
O=C(/C=C/c1nc2cc(Cl)ccc2[nH]1)c1c(-c2ccccc2)c2cc(Cl)ccc2[nH]c1=O : 0.42
O=C(/C=C/c1nc2ccccc2[nH]1)c1c(O)nc2ccc(Cl)cc2c1-c1ccccc1 [BI-69A11, reference compound] : 0.24

q: Which solubility value belongs to O=C(/C=C/c1ccccc1)c1c(C2CCCCC2)c2cc(Cl)ccc2[nH]c1=O ?
a: 1.4

====

test_protocol: Compound 38 PK Study
Assay type: in vivo, C57Bl/6J mice
condition: male, C57Bl/6J, plasma; mouse; IV 2 mg/kg
measured_attribute: clearance (mL/min/kg)
Write the answer as a number in mL/min/kg, unit excluded.

q: Which clearance value belongs to O=C(/C=C/c1cncc(F)c1)c1c(-c2ccccc2)c2cc(Cl)ccc2[nH]c1=O [Compound 38] ?
a: 67

====

Below is a list of entries, each paired with its recorded pIC50 value.
tested_on: EmCV Cap-independent translation
test_protocol: In vitro translation assay, FF-EmCV-Ren construct, cap-independent (Ren luciferase)
pIC50: −log10 of the molar value.

N#Cc1ccc(-c2c(C(=O)/C=C/c3cncc(F)c3)c(=O)[nH]c3ccc(Cl)cc23)cc1 : 5.00 to 5.70

q: Which pIC50 value belongs to O=C(/C=C/c1nc2cc(Cl)c(Cl)cc2[nH]1)c1c(-c2ccccc2)c2cc(Cl)ccc2[nH]c1=O ?
a: 5.00 to 5.70

q: What about O=C(/C=C/c1cncc(F)c1)c1c(-c2ccc(OC(F)(F)F)cc2)c2cc(Cl)ccc2[nH]c1=O ?
a: 5.00 to 5.70

q: What about O=C(/C=C/c1ccccn1)c1c(-c2ccc(F)cc2)c2cc(Cl)ccc2[nH]c1=O ?
a: 5.00 to 5.70

q: What about N#Cc1cncc(-c2c(C(=O)/C=C/c3ccccn3)c(=O)[nH]c3ccc(Cl)cc23)c1 ?
a: 4.70 to 5.00

q: What about O=C(/C=C/c1nc2ccccc2[nH]1)c1c(-c2ccccn2)c2cc(Cl)ccc2[nH]c1=O ?
a: < 4.70

q: What about CCn1c(/C=C/C(=O)c2c(-c3ccccc3)c3cc(Cl)ccc3[nH]c2=O)nc2ccccc21 ?
a: 5.00 to 5.70

====

Below is a list of entries, each paired with its recorded pIC50 value.
tested_on: EmCV Cap-independent translation
test_protocol: In vitro translation assay, FF-EmCV-Ren construct, cap-independent (Ren luciferase)
Description: The bicistronic dual-reporter constructs that contain the firefly luciferase (FF) sequence, followed by the (encephalomyocarditis virus) EmCV and Hepatitis C virus (HCV) IRES, respectively, and the Renilla reniformis (Ren) luciferase sequence, has been previously described (Bordeleau Me., et al. Functional characterization of IRESes by an inhibitor of the RNA helicase eIF4A. Nature chemical biology. 2006; 2:213-20). […]
pIC50: −log10 of the molar value.

Solved cases (5 shown):
O=C(/C=C/c1cnccn1)c1c(-c2ccccc2)c2cc(Cl)ccc2[nH]c1=O : 5.00 to 5.70
O=C(/C=C/c1cncc(F)c1)c1c(-c2ccc(F)cc2)c2cc(Cl)ccc2[nH]c1=O : 5.00 to 5.70
Cn1c(/C=C/C(=O)c2c(-c3ccccc3)c3cc(Cl)ccc3n(C)c2=O)nc2ccccc21 : 5.00 to 5.70
O=C(/C=C/c1ccccc1)c1c(-c2ccccc2)c2cc(Cl)ccc2[nH]c1=O : 5.00 to 5.70
Cc1ccc(/C=C/C(=O)c2c(-c3ccccc3)c3cc(Cl)ccc3[nH]c2=O)nc1 : 5.00 to 5.70

q: Which pIC50 value belongs to O=C(/C=C/c1cc(Cl)ccn1)c1c(-c2ccccc2)c2cc(Cl)ccc2[nH]c1=O ?
a: < 4.70

q: What about O=C(CCc1nc2ccccc2[nH]1)c1c(-c2ccccc2)c2cc(Cl)ccc2[nH]c1=O ?
a: < 4.70

q: What about O=C(/C=C/c1cncc(F)c1)c1c(-c2ccccc2)c2cc(Cl)ccc2[nH]c1=O ?
a: 5.00 to 5.70
